- Test system: C. trachomatis L2/434/Bu expressing GFP (CTL2-GFP)
- Construct: L2/434/Bu GFP intracellular growth in HeLa cells
- experimental.protocol: microbe, parasite or virus in culture
- Design: C. trachomatis total inclusion area by high-content imaging, normalised to DMSO
- setup.conditions: Chlamydia trachomatis, HeLa, 28.5 h; total inclusion area; read-out: % of control remaining
In this section we review reported activity at 5 µM values for a set of compounds.
assay.endpoint: activity at 5 µM (%)

compound: CC1=NN(c2ccccc2)C(=O)/C1=C/Nc1ccc(S(=O)(=O)Nc2nc(C)cc(C)n2)cc1
unit.info: %
reading: 28.2

compound: c1ccc(-c2nc3cc4ccccc4cc3[nH]2)nc1
unit.info: %
reading: 31.5

compound: N#CC(CCCN1CCN(c2ccccc2)CC1)(c1ccccc1)c1ccccc1 [CBK002243C]
unit.info: %
reading: 23.5

compound: COc1ccc([C@@]23CC[C@@H](Nc4nc(-c5ccc(Br)cc5)cs4)C[C@@H]2N(C)CC3)cc1OC
unit.info: %
reading: 68.6

compound: CC(Nc1cccc2ccccc12)C(=O)N/N=C/c1c(O)ccc2ccccc12 (stereo not drawn)
unit.info: %
reading: 47.4

compound: Cc1cccc(N(C)S(=O)(=O)c2ccc(N3CCCNCC3)c3ccccc23)c1C [CBK004430C]
unit.info: %
reading: 56.7

compound: N#Cc1c(Nc2cccc(C(F)(F)F)c2)sc(C(=O)c2ccc3c(c2)OCO3)c1N
unit.info: %
reading: 2.64

compound: COc1ccc([C@H]2CN(Cc3ccccc3)[C@@H]3CCN(C(=O)Cc4ccsc4)C[C@H]23)cc1
unit.info: %
reading: 87.9

compound: COc1cccc(C(=O)/C=C\Nc2ccc(S(=O)(=O)Nc3onc(C)c3C)cc2)c1
unit.info: %
reading: 28.9

compound: COc1ccc(CC(=O)N2CCCC(c3nc(C)c4c(n3)N(CC3CC3)CCC4)C2)cc1 (stereo not drawn)
unit.info: %
reading: 46.6

compound: Cc1csc(SC(C)C(=O)N2CCc3ccccc32)n1 (stereo not drawn)
unit.info: %
reading: 49.8

compound: CN1CCCN(c2ccc(NS(=O)(=O)c3cccc(F)c3)c3ccccc23)CC1 [CBK200010C]
unit.info: %
reading: 43.7

compound: Cc1ccc(CNC(=O)OCc2cccnc2C)o1
unit.info: %
reading: 61.9

compound: COc1ccc(OC)c(Nc2nc(NCC3CCCO3)c3ccccc3n2)c1 (stereo not drawn) [CBK268403C]
unit.info: %
reading: 61

compound: Cc1noc(NS(=O)(=O)c2ccc(NC(=O)COc3cccc(Br)c3)cc2)c1C
unit.info: %
reading: 45.5

compound: CC(C)Nc1nc2cc(Cl)c(Cl)cc2nc1Sc1cccc(O)c1
unit.info: %
reading: 50.2

compound: O=C(Nc1cccc(OC(=O)c2cc(S(=O)(=O)N3CCCCC3)ccc2Cl)c1)c1ccco1
unit.info: %
reading: 85.8

compound: c1ccc2c3c([nH]c2c1)C1(CCN(CCC2CCCCC2)C1)OCC3 (stereo not drawn)
unit.info: %
reading: 5.37

compound: CC(C)(N)CNC(=O)c1cc(C(C)(C)C)nn1Cc1ccc(Cl)cc1Cl
unit.info: %
reading: 54.2

compound: CC(=O)N1CCc2sccc2C1c1ccccc1NCc1ccoc1 (stereo not drawn)
unit.info: %
reading: 24.5

compound: CCOc1ccc(OCC)c2c1n(C)c(SC)[n+]2C [CBK005720G]
unit.info: %
reading: 27.2

Value source: paper PMC12040169
